Source: the RNAGym collection of RNA variant scans (doi:10.1073/pnas.2313332121)

B1: TPR t1 (parent)
chain: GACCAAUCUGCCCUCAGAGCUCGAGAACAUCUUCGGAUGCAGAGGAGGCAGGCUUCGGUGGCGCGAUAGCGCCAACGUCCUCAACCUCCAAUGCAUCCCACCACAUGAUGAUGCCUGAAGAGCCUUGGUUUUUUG

# Variants of: B1
# assayDetails: polymerase ribozyme fitness, log enrichment relative to wild type (log ratio); higher = more active; in vitro selection for triplet polymerase activity
Lab note: compare polymerase ribozyme fitness (log ratio) against -2. Equal or greater, write true. Smaller, write false.

>  <alteration>
G61A A111U U116C

>  <group>
false

$$$$
>  <alteration>
C22A C72A U106A A118G

>  <group>
false

$$$$

Input line: // inclusive: polymerase ribozyme fitness (log ratio) at least -2? input: A43C G71U C88A C123U
Output line: false

Input line: Please do the same for A26U G51A C64U A91U G120A C124G as well.
Output line: false

Input line: Please do the same for C11G G42U U59A G60U as well.
Output line: true

Input line: Please do the same for G10A A27G C31G G107C as well.
Output line: false

Input line: Please do the same for C56G G57A G61C A118G as well.
Output line: false

Input line: Please do the same for U78C A118U as well.
Output line: true

Input line: Please do the same for G60A G110U as well.
Output line: true

Input line: Please do the same for C12U G48A U54G A121U U129G as well.
Output line: true

Input line: Please do the same for U14A U125A as well.
Output line: false

Input line: Please do the same for C102U G122U as well.
Output line: true

Input line: Please do the same for U33C C49A as well.
Output line: false

Input line: Please do the same for A37C G48U A108U G120C as well.
Output line: false

Input line: Please do the same for C56U C104U as well.
Output line: true
